Test system: CHO cell line that expresses an antibody
Assay: Batch experiment with the substances according to the invention (Example 1)
Assay type: cell-based, Chinese hamster
Conditions: batch mode, day 11; substance 0.5-1 g/l; basal medium glucose 4.7 g/l, glutamine […]
Listing of entries alongside the reported Lactate.
Return type: number; implicit unit g/L.

INSERT INTO results (molecule, measured_result) VALUES
  ('NCCC[C@H](N)C(=O)O', 1.26),
  ('O=C([O-])/C=C/C(=O)[O-].[Na+].[Na+] [Sodium fumarate]', 1.46),
  ('O=C(O)CCCCC(=O)O', 1.28),
  ('O=C([O-])CCC(=O)[O-].[Na+].[Na+] [Sodium succinate]', 1.59),
  ('O=C(O)CC(O)C(=O)O (stereo not drawn)', 1.2);

I would be grateful if you could share the reported Lactate for CC(O)C(=O)[O-].[Na+] (stereo not drawn) [Sodium lactate] .
1.04

I would be grateful if you could share the reported Lactate for NC(=O)NCCC[C@H](N)C(=O)O .
1.48

I would be grateful if you could share the reported Lactate for CC(=O)C(=O)[O-].[Na+] [Sodium pyruvate] .
1.93

I would be grateful if you could share the reported Lactate for O=C(O)C(O)C(O)C(=O)O (stereo not drawn) .
0.79

###

Tested on: CHO cell line that expresses an antibody
Assay: Fed-batch experiment with the substances according to the invention (Example 2, Table 2)
Assay type: cell-based, Chinese hamster
Settings: day 0, fed-batch
quantity: Viable Cell Density (VCD)

Lab note: need Viable Cell Density (VCD) with CHO cell line that expresses an antibody for entry O=C(O)C(O)C(O)C(=O)O (stereo not shown) [Tartaric acid] , please look it up.
1.37 E5/ml

Lab note: need Viable Cell Density (VCD) with CHO cell line that expresses an antibody for entry CC(=O)C(=O)[O-].[Na+] [Sodium pyruvate] , please look it up.
1.37 E5/ml

Lab note: need Viable Cell Density (VCD) with CHO cell line that expresses an antibody for entry O=C(O)CCCCC(=O)O [Adipic acid] , please look it up.
1.37 E5/ml

Lab note: need Viable Cell Density (VCD) with CHO cell line that expresses an antibody for entry O=C([O-])/C=C/C(=O)[O-].[Na+].[Na+] [Sodium fumarate] , please look it up.
1.37 E5/ml

###

Listing of entries alongside the reported NH4.
System: CHO cell line that expresses an antibody
Test: Batch experiment with the substances according to the invention (Example 1)
Assay type: cell-based, Chinese hamster
Details: batch mode, day 6; substance 0.5-1 g/l; basal medium glucose 4.7 g/l, glutamine […]
Return type: number; implicit unit mM.

I would be grateful if you could share the reported NH4 for NC(=O)NCCC[C@H](N)C(=O)O .
2.66

I would be grateful if you could share the reported NH4 for O=C([O-])/C=C/C(=O)[O-].[Na+].[Na+] [Sodium fumarate] .
2.49

I would be grateful if you could share the reported NH4 for CC(O)C(=O)[O-].[Na+] (centres unmarked) [Sodium lactate] .
2.07

I would be grateful if you could share the reported NH4 for O=C([O-])CCC(=O)[O-].[Na+].[Na+] [Sodium succinate] .
2.25

I would be grateful if you could share the reported NH4 for CC(=O)C(=O)[O-].[Na+] [Sodium pyruvate] .
1.91

I would be grateful if you could share the reported NH4 for O=C(O)CC(O)C(=O)O (centres unmarked) .
2.42

I would be grateful if you could share the reported NH4 for O=C(O)CCCCC(=O)O .
2.67

I would be grateful if you could share the reported NH4 for O=C(O)C(O)C(O)C(=O)O (centres unmarked) .
2.89

###

Test system: CHO cell line that expresses an antibody
Assay: Batch experiment with the substances according to the invention (Example 1)
Type: cell-based, Chinese hamster
Settings: batch mode, day 8; substance 0.5-1 g/l; basal medium glucose 4.7 g/l, glutamine […]
quantity: Specific lactate production (Lac/VCD)
Answer with a number only.

INSERT INTO results (compound, system_tested, measured_result) VALUES
  ('O=C([O-])/C=C/C(=O)[O-].[Na+].[Na+] [Sodium fumarate]', 'CHO cell line that expresses an antibody', 0.06),
  ('O=C([O-])CCC(=O)[O-].[Na+].[Na+] [Sodium succinate]', 'CHO cell line that expresses an antibody', 0.04),
  ('O=C(O)CCCCC(=O)O [Adipic acid]', 'CHO cell line that expresses an antibody', 0.06),
  ('CC(O)C(=O)[O-].[Na+] (stereo not drawn) [Sodium lactate]', 'CHO cell line that expresses an antibody', 0.07),
  ('CC(=O)C(=O)[O-].[Na+] [Sodium pyruvate]', 'CHO cell line that expresses an antibody', 0.06),
  ('O=C(O)CC(O)C(=O)O (stereo not drawn) [Malic acid]', 'CHO cell line that expresses an antibody', 0.04),
  ('NC(=O)NCCC[C@H](N)C(=O)O [Citrulline]', 'CHO cell line that expresses an antibody', 0.08),
  ('O=C(O)C(O)C(O)C(=O)O (stereo not drawn) [Tartaric acid]', 'CHO cell line that expresses an antibody', 0.06);

Below: the item to evaluate.
I would be grateful if you could share the reported Specific lactate production (Lac/VCD) for NCCC[C@H](N)C(=O)O [Ornithine] .
0.05

###

System: CHO cell line that expresses an antibody
Experiment: Batch experiment with the substances according to the invention (Example 1)
Type: cell-based, Chinese hamster
Conditions: batch mode, day 3; substance 0.5-1 g/l; basal medium glucose 4.7 g/l, glutamine […]
quantity: Viable Cell Density (VCD)

INSERT INTO results (molecule, measured_result) VALUES
  ('O=C(O)CCCCC(=O)O', '7.1 E5/ml');

I would be grateful if you could share the reported Viable Cell Density (VCD) for NC(=O)NCCC[C@H](N)C(=O)O .
7.5 E5/ml

I would be grateful if you could share the reported Viable Cell Density (VCD) for O=C(O)CC(O)C(=O)O (centres unmarked) .
7.6 E5/ml

I would be grateful if you could share the reported Viable Cell Density (VCD) for CC(O)C(=O)[O-].[Na+] (centres unmarked) [Sodium lactate] .
6 E5/ml

I would be grateful if you could share the reported Viable Cell Density (VCD) for CC(=O)C(=O)[O-].[Na+] [Sodium pyruvate] .
7.7 E5/ml

I would be grateful if you could share the reported Viable Cell Density (VCD) for O=C(O)C(O)C(O)C(=O)O (centres unmarked) .
5.4 E5/ml

I would be grateful if you could share the reported Viable Cell Density (VCD) for O=C([O-])/C=C/C(=O)[O-].[Na+].[Na+] [Sodium fumarate] .
7 E5/ml

I would be grateful if you could share the reported Viable Cell Density (VCD) for O=C([O-])CCC(=O)[O-].[Na+].[Na+] [Sodium succinate] .
8.2 E5/ml

###

Test system: CHO cell line that expresses an antibody
Experiment: Batch experiment with the substances according to the invention (Example 1)
Assay type: cell-based, Chinese hamster
Conditions: batch mode, day 3; substance 0.5-1 g/l; basal medium glucose 4.7 g/l, glutamine […]
quantity: Specific ammonia production (NH4/VCD)
Answer with a number only.

INSERT INTO assay_data (compound, measured_result) VALUES
  ('NC(=O)NCCC[C@H](N)C(=O)O', 0.25),
  ('O=C(O)CCCCC(=O)O', 0.25),
  ('CC(=O)C(=O)[O-].[Na+] [Sodium pyruvate]', 0.22),
  ('O=C([O-])CCC(=O)[O-].[Na+].[Na+] [Sodium succinate]', 0.22),
  ('O=C(O)C(O)C(O)C(=O)O (stereo not drawn)', 0.34);

Lab note: need Specific ammonia production (NH4/VCD) with CHO cell line that expresses an antibody for entry NCCC[C@H](N)C(=O)O , please look it up.
0.29

Lab note: need Specific ammonia production (NH4/VCD) with CHO cell line that expresses an antibody for entry O=C(O)CC(O)C(=O)O (stereo not drawn) , please look it up.
0.25

Lab note: need Specific ammonia production (NH4/VCD) with CHO cell line that expresses an antibody for entry O=C([O-])/C=C/C(=O)[O-].[Na+].[Na+] [Sodium fumarate] , please look it up.
0.26

Lab note: need Specific ammonia production (NH4/VCD) with CHO cell line that expresses an antibody for entry CC(O)C(=O)[O-].[Na+] (stereo not drawn) [Sodium lactate] , please look it up.
0.28

###

Tested on: CHO cell line that expresses an antibody
Assay: Batch experiment with the substances according to the invention (Example 1)
Format: cell-based, Chinese hamster
Conditions: batch mode, day 3; substance 0.5-1 g/l; basal medium glucose 4.7 g/l, glutamine […]
Kindly apply the following: 1 if Specific Glutamin consumption (Gln/VCD) is less than 0.1, -1 in every other case.

Here's what some known entries look like.
INSERT INTO assay_data (compound, class) VALUES
  ('CC(=O)C(=O)[O-].[Na+] [Sodium pyruvate]', -1),
  ('O=C([O-])CCC(=O)[O-].[Na+].[Na+] [Sodium succinate]', 1),
  ('CC(O)C(=O)[O-].[Na+] (stereo not drawn) [Sodium lactate]', -1),
  ('O=C(O)C(O)C(O)C(=O)O (stereo not drawn)', -1);

Now look at this entry.
Decide: Specific Glutamin consumption (Gln/VCD) of NC(=O)NCCC[C@H](N)C(=O)O strictly below 0.1?
-1

meta.source: patent US8426202B2
